molecular target: Aldo-keto reductase family 1 member B10 (Homo sapiens, UniProt O60218, V301L); assay: Competitive inhibition of dehydrogenase activity of N-terminal 6His-tagged human AKR1B10 V301L mutant expressed in Escherichia coli BL21(DE3) assessed as NADP+-linked geraniol oxidation
Sequence (O60218 whole entry V301L): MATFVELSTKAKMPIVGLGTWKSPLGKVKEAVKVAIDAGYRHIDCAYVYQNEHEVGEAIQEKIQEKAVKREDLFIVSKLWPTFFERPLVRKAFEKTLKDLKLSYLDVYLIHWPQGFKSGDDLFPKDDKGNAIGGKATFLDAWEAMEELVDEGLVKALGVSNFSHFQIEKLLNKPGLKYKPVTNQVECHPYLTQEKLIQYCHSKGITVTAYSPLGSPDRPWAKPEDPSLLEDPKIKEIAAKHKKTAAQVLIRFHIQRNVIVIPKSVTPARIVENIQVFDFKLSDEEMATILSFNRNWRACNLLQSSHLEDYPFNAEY
Assay Endpoint: Ki (µM)
Write the value in µM as a bare number.

Query Ki for C[C@H]1[C@H](C)CC[C@]2(C(=O)O)CC[C@]3(C)C(=CC[C@@H]4[C@@]5(C)CC[C@H](O)C(C)(C)[C@@H]5CC[C@]43C)[C@H]12 [URSOLIC ACID]
2.1

###

molecular target: DNA polymerase beta (Homo sapiens, UniProt P06746); test: Inhibition of DNA polymerase beta
Assay Endpoint: pIC50
Quick note: pIC50 means taking -log10 of the concentration in moles per liter.

Query pIC50 for `CC1(C)CC[C@]2(C(=O)O)CC[C@]3(C)C(=CC[C@@H]4[C@@]5(C)CC[C@H](O)C(C)(C)[C@@H]5CC[C@]43C)[C@@H]2C1`
5.52

###

biological target: Aldo-keto reductase family 1 member B10 (Homo sapiens, UniProt O60218, K125L); assay: Competitive inhibition of dehydrogenase activity of N-terminal 6His-tagged human AKR1B10 K125L mutant expressed in Escherichia coli BL21(DE3) assessed as NADP+-linked geraniol oxidation
Sequence (O60218 whole entry K125L): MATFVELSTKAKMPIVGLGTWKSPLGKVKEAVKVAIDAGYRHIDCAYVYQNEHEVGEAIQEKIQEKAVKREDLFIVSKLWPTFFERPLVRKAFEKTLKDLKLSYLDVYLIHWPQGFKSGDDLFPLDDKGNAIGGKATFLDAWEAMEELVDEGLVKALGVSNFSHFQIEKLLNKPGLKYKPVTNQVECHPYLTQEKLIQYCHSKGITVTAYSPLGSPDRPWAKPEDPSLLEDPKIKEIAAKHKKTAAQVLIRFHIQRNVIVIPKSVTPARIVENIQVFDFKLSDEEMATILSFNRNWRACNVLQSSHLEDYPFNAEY
Assay Endpoint: Ki (µM)
Write the value in µM as a bare number.

Query Ki for `C[C@H]1[C@H](C)CC[C@]2(C(=O)O)CC[C@]3(C)C(=CC[C@@H]4[C@@]5(C)CC[C@H](O)C(C)(C)[C@@H]5CC[C@]43C)[C@H]12`
2.8

###

Assign IC50 to each entry below.
Write the value in µM as a bare number.

# return IC50 for CC1(C)[C@@H](O)CC[C@]2(C)[C@H]3C(=O)C=C4[C@@H]5C[C@@](C)(C(=O)O)CC[C@]5(C)CC[C@@]4(C)[C@]3(C)CC[C@@H]12 [ENOXOLONE] , test system: UniProt:O60218
4.9

# return IC50 for C[C@H]1[C@H](C)CC[C@]2(C(=O)O)CC[C@]3(C)C(=CC[C@@H]4[C@@]5(C)C[C@@H](O)[C@H](O)[C@@](C)(CO)[C@@H]5CC[C@]43C)[C@H]12 [ASIATIC ACID] , test system: UniProt:O60218
5.9

# return IC50 for C=C(C)[C@@H]1CC[C@]2(C(=O)O)CC[C@]3(C)[C@H](CC[C@@H]4[C@@]5(C)CC[C@H](O)C(C)(C)[C@@H]5CC[C@]43C)[C@@H]12 [BETULINIC ACID] , test system: UniProt:O60218
2

###

biological target: Aldo-keto reductase family 1 member B10 (Homo sapiens, UniProt O60218); assay: Competitive inhibition of dehydrogenase activity of N-terminal 6His-tagged human AKR1B10 expressed in Escherichia coli BL21(DE3) assessed as NADP+-linked geraniol oxidation
Sequence (O60218 whole entry): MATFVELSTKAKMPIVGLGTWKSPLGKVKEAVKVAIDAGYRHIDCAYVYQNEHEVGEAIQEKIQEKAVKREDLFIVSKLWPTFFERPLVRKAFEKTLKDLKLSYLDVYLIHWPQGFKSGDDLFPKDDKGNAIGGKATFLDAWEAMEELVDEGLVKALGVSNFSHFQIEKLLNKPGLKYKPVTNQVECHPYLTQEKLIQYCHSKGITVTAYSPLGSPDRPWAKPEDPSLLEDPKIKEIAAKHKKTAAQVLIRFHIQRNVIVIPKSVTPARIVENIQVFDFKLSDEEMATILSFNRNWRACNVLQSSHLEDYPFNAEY
Assay Endpoint: pKi
Quick note: pKi means taking -log10 of the concentration in moles per liter.

# return pKi for `C[C@H]1[C@H](C)CC[C@]2(C(=O)O)CC[C@]3(C)C(=CC[C@@H]4[C@@]5(C)CC[C@H](O)C(C)(C)[C@@H]5CC[C@]43C)[C@H]12` , test system: Aldo-keto reductase family 1 member B10 (Homo sapiens, UniProt O60218)
5.70

###

target: Phospholipase A2 (Homo sapiens, UniProt P04054)
Sequence (P04054 whole entry): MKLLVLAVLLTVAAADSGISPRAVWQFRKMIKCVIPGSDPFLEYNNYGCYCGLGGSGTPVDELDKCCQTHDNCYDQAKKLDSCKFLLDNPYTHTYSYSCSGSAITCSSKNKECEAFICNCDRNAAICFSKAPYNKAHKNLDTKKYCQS
Assay Endpoint: pIC50
Quick note: pIC50 means taking -log10 of the concentration in moles per liter.

# return pIC50 for CC1(C)CC[C@]2(C(=O)O)CC[C@]3(C)C(=CC[C@@H]4[C@@]5(C)CC[C@H](O)C(C)(C)[C@@H]5CC[C@]43C)[C@@H]2C1 [OLEANOLIC_ACID] , test system: Phospholipase A2 (Homo sapiens, UniProt P04054)
5.52

###

biological target: Aldo-keto reductase family 1 member B10 (Homo sapiens, UniProt O60218, W220Y); experiment: Competitive inhibition of dehydrogenase activity of N-terminal 6His-tagged human AKR1B10 W220Y mutant expressed in Escherichia coli BL21(DE3) assessed as NADP+-linked geraniol oxidation
Sequence (O60218 whole entry W220Y): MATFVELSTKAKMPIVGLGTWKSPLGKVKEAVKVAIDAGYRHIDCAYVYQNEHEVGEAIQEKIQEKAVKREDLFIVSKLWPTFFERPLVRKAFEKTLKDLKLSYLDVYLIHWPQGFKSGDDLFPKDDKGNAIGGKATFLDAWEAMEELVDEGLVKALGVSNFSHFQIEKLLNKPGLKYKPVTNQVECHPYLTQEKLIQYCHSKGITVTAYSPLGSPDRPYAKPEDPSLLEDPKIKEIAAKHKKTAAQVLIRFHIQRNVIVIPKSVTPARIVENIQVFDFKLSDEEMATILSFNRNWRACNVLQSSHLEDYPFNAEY
Assay Endpoint: Ki (µM)
Write the value in µM as a bare number.

Query Ki for C[C@H]1[C@H](C)CC[C@]2(C(=O)O)CC[C@]3(C)C(=CC[C@@H]4[C@@]5(C)CC[C@H](O)C(C)(C)[C@@H]5CC[C@]43C)[C@H]12 [URSOLIC ACID]
6

###

species: Homo sapiens; assay: Selectivity ratio of IC50 for human recombinant AKR1B1 to IC50 for human AKR1B10
Response key: yes (1) means Ratio IC50 >= 6; no (0) means Ratio IC50 < 6.

Check the entry CC1(C)[C@@H](O)CC[C@]2(C)[C@H]3C(=O)C=C4[C@@H]5C[C@@](C)(C(=O)O)CC[C@]5(C)CC[C@@]4(C)[C@]3(C)CC[C@@H]12 [ENOXOLONE] : does Ratio IC50 equal or exceed 6?
yes (1)

Check the entry C[C@H]1[C@H](C)CC[C@]2(C(=O)O)CC[C@]3(C)C(=CC[C@@H]4[C@@]5(C)CC[C@H](O)C(C)(C)[C@@H]5CC[C@]43C)[C@H]12 [URSOLIC ACID] : does Ratio IC50 equal or exceed 6?
yes (1)

Check the entry CC1(C)CC[C@]2(CO)CC[C@]3(C)C(=CC[C@@H]4[C@@]5(C)CC[C@H](O)C(C)(C)[C@@H]5CC[C@]43C)[C@@H]2C1 [ERYTHRODIOL] : does Ratio IC50 equal or exceed 6?
no (0)

Check the entry CC1(C)CC[C@]2(C(=O)O)CC[C@]3(C)C(=CC[C@@H]4[C@@]5(C)C[C@@H](O)[C@H](O)C(C)(C)[C@@H]5CC[C@]43C)[C@@H]2C1 [MASLINIC ACID] : does Ratio IC50 equal or exceed 6?
yes (1)

Just for reference, ChEMBL document CHEMBL2163317 is where these values come from.
